What follows is a collection of Ki values obtained with human thrombin (Homo sapiens, UniProt P00734).

Some solved entries appear below for comparison.
| Compound | Assay system | Ki |
| --- | --- | --- |
| Cc1c(N2CCCC2=O)cccc1S(=O)(=O)N[C@@H](Cc1cc(-c2ccc(Cl)s2)on1)C(=O)N1CCN(CC(F)(F)F)CC1 [Example 6] | human thrombin (Homo sapiens, UniProt P00734) | 14 nM |
| COc1c(N2CCCCC2=O)cc(F)cc1S(=O)(=O)N[C@@H](Cc1cc(-c2ccc(Cl)s2)on1)C(=O)NCC1CC1 [Example 3] | human thrombin (Homo sapiens, UniProt P00734) | 268 nM |
| COc1c(N2CCCCC2=O)cc(F)cc1S(=O)(=O)N[C@@H](Cc1cc(-c2ccc(Cl)s2)on1)C(=O)N1CCN(C2CC2)CC1 [Example 4] | human thrombin (Homo sapiens, UniProt P00734) | 29 nM |
| Cc1c(N2CCCC2=O)cccc1S(=O)(=O)N[C@@H](Cc1cc(-c2ccc(Cl)s2)on1)C(=O)N1CCNC(C(F)(F)F)C1 (some centres unmarked) [Example 7] | human thrombin (Homo sapiens, UniProt P00734) | 0.79 nM |

Okay, now this compound:
Can you share its Ki? I mean this compound: O=C([C@H](Cc1cc(-c2ccc(Cl)s2)on1)NS(=O)(=O)c1cccc(N2CCCCC2=O)c1OC(F)F)N1CCN(C2CC2)CC1 [Example 5]
94 nM

* * *

pKi data for human coagulation factor Xa (Homo sapiens, UniProt P00742) follow.
// pKi is dimensionless: -log10 of concentration (M)

| Mol smiles | Assay system | pKi |
| --- | --- | --- |
| O=C([C@H](Cc1cc(-c2ccc(Cl)s2)on1)NS(=O)(=O)c1cccc(N2CCCCC2=O)c1OC(F)F)N1CCN(C2CC2)CC1 | human coagulation factor Xa (Homo sapiens, UniProt P00742) | 7.48 |
| O=C([C@H](Cc1cc(-c2ccc(Cl)s2)on1)NS(=O)(=O)c1cccc(N2CCOCC2=O)c1Cl)N1CCCCCC1 | human coagulation factor Xa (Homo sapiens, UniProt P00742) | 7.08 |

Okay, now this compound:
Please look up its pKi: Cc1c(N2CCCC2=O)cccc1S(=O)(=O)N[C@@H](Cc1cc(-c2ccc(Cl)s2)on1)C(=O)N1CCN(CC(F)(F)F)CC1
9.14

* * *

Record set of Ki for target or system human coagulation factor Xa (Homo sapiens).
Numbers only here, please. The scale is nM.

| Compound | Assay system | Ki, nM |
| --- | --- | --- |
| COc1c(N2CCCCC2=O)cc(F)cc1S(=O)(=O)N[C@@H](Cc1cc(-c2ccc(Cl)s2)on1)C(=O)NCC1CC1 | human coagulation factor Xa (Homo sapiens) | 904 |
| CCc1c(N2CCOCC2=O)cccc1S(=O)(=O)N[C@@H](Cc1cc(-c2ccc(Cl)s2)on1)C(=O)N1CCCCCC1 | human coagulation factor Xa (Homo sapiens) | 13 |
| Cc1c(N2CCCC2=O)cccc1S(=O)(=O)N[C@@H](Cc1cc(-c2ccc(Cl)s2)on1)C(=O)N1CCNC(C(F)(F)F)C1 (stereo partly shown) | human coagulation factor Xa (Homo sapiens) | 0.44 |

Now for a further compound.
# value lookup — system human coagulation factor Xa (Homo sapiens), readout Ki, item COc1c(N2CCCCC2=O)cc(F)cc1S(=O)(=O)N[C@@H](Cc1cc(-c2ccc(Cl)s2)on1)C(=O)N1CCN(C2CC2)CC1
6
